Listed here: items and their measured emission maximum.
assay: solvent given as SMILES; conditions: in ClCCl

{"smi": "C(=C\\c1ncc(-c2ccc(OCc3ccccc3)c(OCc3ccccc3)c2)o1)/c1cccc(N2CCCC2)c1", "unit-string": "nm", "emission maximum": 485}
{"smi": "CCN(CC)c1ccc2cc(-c3ccc(-c4ccc(-c5cc6ccccc6oc5=O)cc4)cc3)c(=O)oc2c1", "unit-string": "nm", "emission maximum": 478}
{"smi": "CN(C)c1ccc(-c2cc(-c3ccc(C#N)cc3)nn2C)cc1", "unit-string": "nm", "emission maximum": 499}
{"smi": "O=S1(=O)C2=C(c3ccc(-c4ccc(N(c5ccccc5)c5ccccc5)cc4)cc31)C1(C3=C(c4ccccc41)S(=O)(=O)c1cc(-c4ccc(N(c5ccccc5)c5ccccc5)cc4)ccc13)c1ccccc12", "unit-string": "nm", "emission maximum": 624}
